These measurements were taken from PubChem BioAssay (Tox21).

assay overview: qHTS RealTime-Glo MT Cell Viability Assay in HEK293 cells - 16 hour (AID 1224872); further: nearly all actives have a fitted effect of over 50% in size
test context: RealTime-Glo luminescence; series mostly up to 76.8 µM
Inconclusive results are not listed. Active and inactive are the calls of the source. The call rests on the fitted dose curve; in most records, active means well fitted cell-killing curve with a large enough effect in the repeat runs; inconclusive means weak or mixed curves, or effect the other way; inactive means flat fitted curve, though single readings scatter.
Labels: true (1) (active), false (0) (inactive)

compound: Nc1cc(Cl)c(O)c(Cl)c1
assigned class: false (0)
--
compound: CCCC(=O)OC(C)(C)Cc1ccccc1
assigned class: false (0)
--
compound: C1CCC(SSC2CCCCC2)CC1
assigned class: false (0)
--
compound: CN(C)C(=O)COC(=O)Cc1ccc(OC(=O)c2ccc(N=C(N)N)cc2)cc1
assigned class: false (0)
--
compound: O=c1[nH]c2ccccc2n1CCCN1CCN(C(c2ccccc2)c2ccccc2)CC1
assigned class: true (1)
--
compound: CCCCC(CC)COC(=O)CCCCC(=O)OCc1ccccc1 (stereo unspecified)
assigned class: false (0)

* * *

assay overview: qHTS assay to identify small molecule agonists of the peroxisome proliferator-activated receptor delta (PPARd) signaling pathway - cell viability counter screen (AID 743211); further: nearly all actives have a fitted effect of over 55% in size
test context: PPARd-bla HEK293H viability, CellTiter-Glo luminescence, 17 h; series mostly up to 62.6 µM
Records with an inconclusive call do not appear. Activity calls are given as the source filed them. The call rests on the fitted dose curve; in most records, active means well fitted cell-killing curve with a large enough effect in the repeat runs; inconclusive means weak or mixed curves; inactive means no such curve, though single readings can be large or run the other way.
Labels: Y for active, N for inactive

compound: OC/C=C/CO
assigned class: N
//
compound: Nc1cc(Cl)c(O)c(Cl)c1
assigned class: N
//
compound: CCC(CC)C(C)CCOC(C)=O (configuration not stated)
assigned class: N
//
compound: COc1ccc2c(c1)c(CC(=O)OC/C=C(\C)CC/C=C(\C)CCC=C(C)C)c(C)n2C(=O)c1ccc(Cl)cc1
assigned class: N
//
compound: Cc1ccc(C(C)C)cc2c(C)ccc1-2
assigned class: N
//
compound: COc1cc2nc(N3CCN(C(=O)c4ccco4)CC3)nc(N)c2cc1OC
assigned class: N
//
compound: CC(C)(C)c1ccc(C(O)CCCN2CCC(C(O)(c3ccccc3)c3ccccc3)CC2)cc1 (configuration not stated)
assigned class: Y
//
compound: ClCCl
assigned class: N
//
compound: COC(=O)c1ccccc1OC
assigned class: N
//
compound: Cc1nc2n(c(=O)c1CCN1CCC(c3noc4cc(F)ccc34)CC1)CCCC2
assigned class: N
//
compound: C[C@H]1NCc2cc(-c3ccc4c(=O)c(C(=O)O)cn(C5CC5)c4c3OC(F)F)ccc21
assigned class: N
//
compound: C=CCn1c(=O)n(CC=C)c(=O)n(CC=C)c1=O
assigned class: N

* * *

target entity: Voltage-gated inwardly rectifying potassium channel KCNH2 (Homo sapiens) (UniProt Q12809)
Sequence (Q12809 whole entry, looked up): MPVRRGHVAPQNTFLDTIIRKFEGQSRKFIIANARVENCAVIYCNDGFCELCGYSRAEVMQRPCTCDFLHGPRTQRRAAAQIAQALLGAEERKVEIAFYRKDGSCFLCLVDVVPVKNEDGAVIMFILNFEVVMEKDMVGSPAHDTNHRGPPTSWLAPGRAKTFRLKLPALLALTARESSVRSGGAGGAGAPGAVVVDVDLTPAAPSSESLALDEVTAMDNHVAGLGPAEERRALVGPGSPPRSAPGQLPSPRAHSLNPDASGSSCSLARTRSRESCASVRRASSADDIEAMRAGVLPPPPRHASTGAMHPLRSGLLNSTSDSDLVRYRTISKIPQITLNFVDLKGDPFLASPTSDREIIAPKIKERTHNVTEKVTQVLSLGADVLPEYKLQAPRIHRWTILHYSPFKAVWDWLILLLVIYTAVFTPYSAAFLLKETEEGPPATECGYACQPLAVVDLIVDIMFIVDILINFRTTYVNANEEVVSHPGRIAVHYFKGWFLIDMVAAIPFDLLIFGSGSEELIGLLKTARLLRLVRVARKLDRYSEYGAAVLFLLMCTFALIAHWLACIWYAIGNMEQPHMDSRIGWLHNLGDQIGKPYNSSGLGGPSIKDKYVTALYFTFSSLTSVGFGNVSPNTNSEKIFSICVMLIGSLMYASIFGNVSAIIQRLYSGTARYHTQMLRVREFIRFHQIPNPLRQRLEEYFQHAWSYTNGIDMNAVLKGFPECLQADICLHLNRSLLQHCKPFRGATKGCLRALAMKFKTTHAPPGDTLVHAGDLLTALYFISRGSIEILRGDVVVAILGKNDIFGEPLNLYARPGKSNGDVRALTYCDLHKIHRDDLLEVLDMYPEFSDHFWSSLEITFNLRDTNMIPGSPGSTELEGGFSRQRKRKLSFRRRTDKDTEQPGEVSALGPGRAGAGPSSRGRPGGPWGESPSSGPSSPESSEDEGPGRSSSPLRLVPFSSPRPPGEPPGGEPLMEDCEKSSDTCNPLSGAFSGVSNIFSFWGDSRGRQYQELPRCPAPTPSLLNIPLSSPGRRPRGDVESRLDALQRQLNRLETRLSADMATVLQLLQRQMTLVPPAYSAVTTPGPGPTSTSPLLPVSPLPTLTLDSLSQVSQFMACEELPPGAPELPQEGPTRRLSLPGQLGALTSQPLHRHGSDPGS
assay overview: Human Ether-a-go-go-Related Gene (hERG) channel small molecule antagonists: fluorescence cell-based qHTS assay (AID 1671200); further: nearly all actives have a fitted effect of over 50% in size
test context: hERG-U2OS cells, FluxOR thallium flux fluorescence; series mostly up to 76.8 µM
Inconclusive results are not listed. Active and inactive are the calls of the source. The call rests on the fitted dose curve; in most records, active means well fitted inhibition curve with a large enough effect in the repeat runs; inconclusive means weak or mixed curves; inactive means flat fitted curve, though single readings scatter.
Labels: 1 (yes) = active, 0 (no) = inactive

compound: Cc1ccc(O)c(N)c1
target entity: Voltage-gated inwardly rectifying potassium channel KCNH2 (Homo sapiens) (UniProt Q12809)
assigned class: 0 (no)
--
compound: C=C(C)C(=O)OCCCCCCCCCC
target entity: Voltage-gated inwardly rectifying potassium channel KCNH2 (Homo sapiens) (UniProt Q12809)
assigned class: 0 (no)
--
compound: O=C(O)Cc1ccc2c(c1)C(=O)c1ccccc1CO2
target entity: Voltage-gated inwardly rectifying potassium channel KCNH2 (Homo sapiens) (UniProt Q12809)
assigned class: 0 (no)
--
compound: OC12N=C(c3ccccc3)SC1Cc1cc(Cl)ccc12 (stereo unspecified)
target entity: Voltage-gated inwardly rectifying potassium channel KCNH2 (Homo sapiens) (UniProt Q12809)
assigned class: 0 (no)
--
compound: CCOc1ccc2ccccc2c1C(=O)N[C@@H]1C(=O)N2[C@@H]1SC(C)(C)[C@@H]2C(=O)O
target entity: Voltage-gated inwardly rectifying potassium channel KCNH2 (Homo sapiens) (UniProt Q12809)
assigned class: 0 (no)
--
compound: C=CC(=O)Nc1cc2c(Nc3ccc(F)c(Cl)c3)ncnc2cc1OCCCN1CCOCC1
target entity: Voltage-gated inwardly rectifying potassium channel KCNH2 (Homo sapiens) (UniProt Q12809)
assigned class: 0 (no)
--
compound: CC(C)CCCCCOC(=O)CCS
target entity: Voltage-gated inwardly rectifying potassium channel KCNH2 (Homo sapiens) (UniProt Q12809)
assigned class: 0 (no)
--
compound: CC1=CCC(=C(C)C)CC1
target entity: Voltage-gated inwardly rectifying potassium channel KCNH2 (Homo sapiens) (UniProt Q12809)
assigned class: 0 (no)
--
compound: Clc1sc(Cl)c(Cl)c1Cl
target entity: Voltage-gated inwardly rectifying potassium channel KCNH2 (Homo sapiens) (UniProt Q12809)
assigned class: 0 (no)
--
compound: Cc1ccc(O)c(O)c1
target entity: Voltage-gated inwardly rectifying potassium channel KCNH2 (Homo sapiens) (UniProt Q12809)
assigned class: 0 (no)
--
compound: C=Cc1ccccc1C=C
target entity: Voltage-gated inwardly rectifying potassium channel KCNH2 (Homo sapiens) (UniProt Q12809)
assigned class: 0 (no)
--
compound: O[C@@H]([C@H](O)[C@H](O)CBr)[C@H](O)CBr
target entity: Voltage-gated inwardly rectifying potassium channel KCNH2 (Homo sapiens) (UniProt Q12809)
assigned class: 0 (no)
--
compound: CC(CO)Oc1ccccc1 (stereo unspecified)
target entity: Voltage-gated inwardly rectifying potassium channel KCNH2 (Homo sapiens) (UniProt Q12809)
assigned class: 0 (no)
--
compound: C=Cc1cccc(C)c1
target entity: Voltage-gated inwardly rectifying potassium channel KCNH2 (Homo sapiens) (UniProt Q12809)
assigned class: 0 (no)
--
compound: O=C(/C=C/c1ccc(O)c(O)c1)O[C@@H](C(=O)O)[C@@H](OC(=O)/C=C/c1ccc(O)c(O)c1)C(=O)O
target entity: Voltage-gated inwardly rectifying potassium channel KCNH2 (Homo sapiens) (UniProt Q12809)
assigned class: 0 (no)
--
compound: OC[C@@H](O)[C@@H](O)CO
target entity: Voltage-gated inwardly rectifying potassium channel KCNH2 (Homo sapiens) (UniProt Q12809)
assigned class: 0 (no)
--
compound: CCCCCCC1CCCC(=O)O1 (stereo unspecified)
target entity: Voltage-gated inwardly rectifying potassium channel KCNH2 (Homo sapiens) (UniProt Q12809)
assigned class: 0 (no)
--
compound: COc1cc(S(=O)(=O)O)c(C)cc1N=Nc1c(O)ccc2cc(S(=O)(=O)O)ccc12
target entity: Voltage-gated inwardly rectifying potassium channel KCNH2 (Homo sapiens) (UniProt Q12809)
assigned class: 0 (no)
--
compound: Cc1c(C)c2c(c(C)c1O)CC[C@@](C)(CCC[C@H](C)CCC[C@H](C)CCCC(C)C)O2
target entity: Voltage-gated inwardly rectifying potassium channel KCNH2 (Homo sapiens) (UniProt Q12809)
assigned class: 0 (no)
--
compound: CC(C)OC(=O)C(O)(CC(=O)O)CC(=O)O
target entity: Voltage-gated inwardly rectifying potassium channel KCNH2 (Homo sapiens) (UniProt Q12809)
assigned class: 0 (no)
--
compound: CCC(=O)C(=O)CC
target entity: Voltage-gated inwardly rectifying potassium channel KCNH2 (Homo sapiens) (UniProt Q12809)
assigned class: 0 (no)
--
compound: Nc1cc(Cl)c(O)c(Cl)c1
target entity: Voltage-gated inwardly rectifying potassium channel KCNH2 (Homo sapiens) (UniProt Q12809)
assigned class: 0 (no)
--
compound: Nc1ccc(C(=O)O)c(O)c1
target entity: Voltage-gated inwardly rectifying potassium channel KCNH2 (Homo sapiens) (UniProt Q12809)
assigned class: 0 (no)
--
compound: CC(C(=O)O)c1ccc2c(c1)[nH]c1ccc(Cl)cc12 (stereo unspecified)
target entity: Voltage-gated inwardly rectifying potassium channel KCNH2 (Homo sapiens) (UniProt Q12809)
assigned class: 0 (no)
--
compound: OC[C@H]1O[C@H](O[C@H]2O[C@H](CO)[C@@H](O)[C@H](O)[C@H]2O)[C@H](O)[C@@H](O)[C@@H]1O
target entity: Voltage-gated inwardly rectifying potassium channel KCNH2 (Homo sapiens) (UniProt Q12809)
assigned class: 0 (no)
--
compound: c1ccc(C(O[C@@H]2CCCN(CCc3ccc4c(c3)OCO4)C2)c2ccccc2)cc1
target entity: Voltage-gated inwardly rectifying potassium channel KCNH2 (Homo sapiens) (UniProt Q12809)
assigned class: 1 (yes)

* * *

assay overview: qHTS assay to identify small molecule agonists of the hypoxia (HIF-1) signaling pathway (AID 1224846); further: on the % scale 0 is the no-effect control and ±100 the full control effect
test context: HRE-bla ME-180 cells, beta-lactamase ratio, 17 h; series mostly up to 76.8 µM
Inconclusive results are not listed. The source made the active and inactive calls. Calls come from the whole dose curve; as a rule, active = well fitted activation curve with a large enough effect in the signal ratio in the repeat runs (not every such curve was filed as active); inconclusive = weak or mixed curves; inactive = flat fitted curve, though single readings scatter; the % refers to the signal ratio.

molecule: O=C(/C=C/c1ccccc1)OC/C=C/c1ccccc1
activation: inactive
--
molecule: CCCCCCCCCCC[C@@H](C[C@@H]1OC(=O)[C@H]1CCCCCC)OC(=O)[C@H](CC(C)C)NC=O
activation: inactive
--
molecule: CC1=CCC(=C(C)C)CC1
activation: inactive
--
molecule: C[Si](Cl)(c1ccccc1)c1ccccc1
activation: inactive
--
molecule: OC/C=C/CO
activation: inactive
--
molecule: Nc1nc2c(ncn2COCCO)c(=O)[nH]1
activation: inactive
--
molecule: OC[C@@H](O)[C@@H](O)CO
activation: inactive
--
molecule: OC1CCC(C2CCCCC2)CC1 (stereo not drawn)
activation: inactive
--
molecule: CCCCCc1ccc(Cl)cc1
activation: inactive
--
molecule: COc1ccc(NC(=O)CC(C)=O)cc1
activation: inactive
--
molecule: CCOc1ccc2ccccc2c1C(=O)N[C@@H]1C(=O)N2[C@@H]1SC(C)(C)[C@@H]2C(=O)O
activation: inactive
--
molecule: C=Cc1ccccc1C=C
activation: inactive
--
molecule: S=C([S-])NCCNC(=S)[S-].S=C([S-])NCCNC(=S)[S-].[Mn+2].[Zn+2]
activation: inactive
